quantity_kind: melting point

CCOC(=O)c1sc(Oc2ccc(C(C)=O)c(O)c2)c2c1CCc1cnn(C)c1-2: 131 to 132 °C
O=C1Nc2ccccc2N2CCN(c3ccccc3)CCN12: 198 to 199 °C
c1cnc(N2CCN(CCCCn3cnc4ccccc43)CC2)nc1: 85 to 88 °C
CC(C)C(C)(N)C(N)=O (single isomer, unassigned; (+)): 74.5 to 76 °C
Cn1cc(-c2cc3cccnc3[nH]2)c2cc(C(=O)N(CCO)CCO)ccc21: 230 to 232 °C
CCC(=O)Oc1ccc2c(c1)CCC(CN1CCC(O)(c3ccccc3)CC1)C2=O (stereo not given): 170 to 172 °C

// recorded melting point for CN(C)c1ccc2sccc2c1 : 52 to 54 °C
